Tested on: MS2 coat protein
Assay: apparent KD of MS2 coat protein; designed switch direction (-1 OFF switch, 1 ON switch): 1; higher = weaker reporter binding
Settings: input ligand: microRNA oligo, concentration not stated
Documented apparent KD of MS2 coat protein across a set of sequences

{"Seq text": "AUAAAACAUGAGGAUCACCCAUGUAAAAAUAUGGGAGGAUAUGCGAAAUAAAAUAAAUAAGCAGAAGGCCUAAAAA [SS! MT 19] (Eterna round: R96, puzzle: Same State 1)", "Test target": "MS2 coat protein", "apparent KD of MS2 coat protein": "52.8 nM"}

// sequence CAUCAUGCGUCUAAGGAUAUGUCUCACAAGACAUGAGGAUCACCCAUGUAGAAUAAAUAAAUGAUGCAGAAGGUGGAGCGCAUGC [Erzausis] (Eterna round: R96, puzzle: Same State 2) , assay MS2 coat protein, apparent KD of MS2 coat protein value: 253 nM

// sequence GUACAGAUCAGAGGAUAUCACGUCGUUUAGACGUGAGAAGGCUGAUCACACAUGAAUAUUAGUACAUGAGGAUCACCCAUGUAC [SSNG1/15-A3] (Eterna round: R96, puzzle: Same State NG 1) , assay MS2 coat protein, apparent KD of MS2 coat protein value: 13.4 nM

// sequence AUACAUGAGGAUCACCCAUGUAAUUAAUUAACUUGUAAGAUCAAGGAUAUCAGCUCGAAUAGAGCUGAGAAGGUGAUCACAUGU [SSNG3/21-C1] (Eterna round: R96, puzzle: Same State NG 3) , assay MS2 coat protein, apparent KD of MS2 coat protein value: 105 nM

// sequence GGAAAGAGGUCAGGAUAUGAAUGGUUGGGACAUGAGGAUCACCCAUGUAAUAGAAGAAAUCUACAUUAGAAGGGACAAGGAAGG [AK SSNG2-V2-5.1] (Eterna round: R96, puzzle: Same State NG 2) , assay MS2 coat protein, apparent KD of MS2 coat protein value: 116 nM

// sequence AUUAUACAUGAGGAUCACCCAUGUAAUUAAUUAAUUAAGAUCUAGGAUAUCAGCUCGUUUAGAGCUGAGAAGGAGAUCACAUGU [SSNG3/20-C3] (Eterna round: R96, puzzle: Same State NG 3) , assay MS2 coat protein, apparent KD of MS2 coat protein value: 23.3 nM

// sequence GUACAUAUCAGAGGAUAUCACGUCGAAUAGACGUGAGAAGGCUGAUCACACAUGAAUAUUAAUACAUGAGGAUCACCCAUGUAC [SSNG1/13-A1] (Eterna round: R96, puzzle: Same State NG 1) , assay MS2 coat protein, apparent KD of MS2 coat protein value: 24.5 nM

// sequence GACCGCGAGGAAGGAUAUGGAGCCUUAUUGGCUCCAGAAGGUCCAUAAGGGACAUGAGGAUCACCCAUGUGGGUUGAAGCGGUC [Fiskers NG1ss - 35] (Eterna round: R96, puzzle: Same State NG 1) , assay MS2 coat protein, apparent KD of MS2 coat protein value: 140 nM

// sequence ACAUGAGGAUCACCCAUGUAUGCUCAGGAAACUGUGCAGCAUUAGGAUAUGGAUCCUAAUUGGAUCCAGAAGGAGUGAAUUAUU [Fiskers NG3ss - 26] (Eterna round: R96, puzzle: Same State NG 3) , assay MS2 coat protein, apparent KD of MS2 coat protein value: 117 nM

----------
System: MS2 coat protein
Test: apparent KD of MS2 coat protein; designed switch direction (-1 OFF switch, 1 ON switch): -1; higher = weaker reporter binding
Conditions: input ligand: FMN 200 uM
Documented apparent KD of MS2 coat protein across a set of sequences
Respond numerically; units are nM and should not be typed.

{"Seq text": "AACGAGUGAGGAUAUCUUGACGGUUUGCAUCAGGCCCUCACAGAGAAGGCACUUGAGGAUCACCCAAGUGACCA [Eredgeinus] (Eterna round: R97, puzzle: Exclusion 4)", "Quantity measured": "apparent KD of MS2 coat protein", "Readout number": 16.5}
{"Seq text": "GGCAUGUAAGGAUAUGCCACCGAGUGCUUUGCGCUCGGUAAGCAGAAGGUACAUGAGGAUCACCCAUGUGAUAA [jl-ex4-4.55 ViennaUCT mod] (Eterna round: R97, puzzle: Exclusion 4)", "Quantity measured": "apparent KD of MS2 coat protein", "Readout number": 132}
{"Seq text": "ACACUGCGAGGAUAUACAUGAGGAUCACCCAUGUUUCGGUAGUCAAGGUUAAUUUAAGGUAGAAGGCGCGUAUU [JR_Ex3_Sub010] (Eterna round: R97, puzzle: Exclusion 3)", "Quantity measured": "apparent KD of MS2 coat protein", "Readout number": 63.8}

// sequence GGAUCGAGUGUGAGGAUAUGCUGGUCCUUGGAUCAGCAGAAGGCACAUGAGGAUCACCCAUGUGAAGACGAUCC [Mat - Exclusion 4 - JL Mod - D73] (Eterna round: R96, puzzle: Brourd's mod of Exclusion 4) , assay MS2 coat protein, apparent KD of MS2 coat protein value: 230

// sequence CCUGUGUAAGGAUAUGCCUGGCCGUGAGGCCAGAUUGAAUAGCAGAAGGUACAUGAGGAUCACCCAUGUACGGG [jl-ex4-4.61 ViennaUCT mod] (Eterna round: R97, puzzle: Exclusion 4) , assay MS2 coat protein, apparent KD of MS2 coat protein value: 206

// sequence CGGCAAUCCAAGGAUAUGCUAGACGAAAGUCUAGCAGAAGGUGGAACAUGAGGAUCACCCAUGUGUCCAAGCCG [Eli x6 4.04] (Eterna round: R97, puzzle: Exclusion 6) , assay MS2 coat protein, apparent KD of MS2 coat protein value: 21.1

// sequence GCUAGGAAUGUCAGGAUAUGCUGAUCCUUGGAUCAGCAGAAGGGACAUGAGGAUCACCCAUGUGCUAACCUAGC [Mat - Exclusion 4 - JL Mod - D6] (Eterna round: R97, puzzle: Brourd's mod of Exclusion 4) , assay MS2 coat protein, apparent KD of MS2 coat protein value: 177

// sequence GUGACCAUAGGAUAUACAUGAGGAUCACCCAUGUGCAGGUCGGAAGACCCGCGGUCAUGUAGAAGGAUGUAAUU [EX3 A.23] (Eterna round: R97, puzzle: Exclusion 3) , assay MS2 coat protein, apparent KD of MS2 coat protein value: 18.2

// sequence GAACGUGGUGAGGAUAUCCGGUCUAACGUGCCAGGAGAAGGCGCCACAUGAGGAUCACCCAUGUGGGUCCCGCC [EX6 B.9] (Eterna round: R97, puzzle: Exclusion 6) , assay MS2 coat protein, apparent KD of MS2 coat protein value: 26

// sequence CAGUACAGAGGAUAUACAUGAGGAUCACCCAUGUGUUUCAGGUACGAGAGUACCGAAUGUAGAAGGCUGUACUG [jl-ex3-4.27 salish99 mod] (Eterna round: R97, puzzle: Exclusion 3) , assay MS2 coat protein, apparent KD of MS2 coat protein value: 229

----------
Test system: MS2 coat protein
Assay: apparent KD of MS2 coat protein; higher = weaker reporter binding
Conditions: Eterna round: R107; input ligand: theophylline 20 uM
Documented apparent KD of MS2 coat protein across a set of sequences
Respond numerically; units are nM and should not be typed.

Study these solved cases before continuing.
{"Seq text": "UAAUAAUCCAGGGUGUAGGUAAUAACAGAUACCAGCCAGAUAACUGGCCCUUGGCAGCUGAAAACCUGAGGAUCACCCAGGUAAA [TheoAS 23 #OpenEnded #MS2Late #AlternativeMS2]", "Test target": "MS2 coat protein", "Unit": "nM", "apparent KD of MS2 coat protein": 122}
{"Seq text": "UGGUAGGUAGGAAGGAGCGCAUACUUCACAUGAGGAUCACCCAUGUCGAGACGUGAGUCAGUGCAGGUAGGUCGCCUAGUUAUGA [Same State - Arginine B (Freestyle 23)]", "Test target": "MS2 coat protein", "Unit": "nM", "apparent KD of MS2 coat protein": 36.1}
{"Seq text": "ACAUGUUGGUGGUAUCUACGAAGGCGGAAACGAGGACCGGUACGGCCGCCACUCGGCGACAUGAGGAUCACCCAUGUGGUUAAGA [Exclusion - Tryptophan A (Freestyle 6)]", "Test target": "MS2 coat protein", "Unit": "nM", "apparent KD of MS2 coat protein": 118}

The sequence listed as AUUAUCAUGGUCAUAUAUAUUUCGUCAGAUACCAGACUAGAUAUAGUCCCUUGGCAGCUGUUACAUGAGGAUCACCCAUGUUAUU [JR_ExcTheophyA_Sub017] has a reported apparent KD of MS2 coat protein of 80.3

The sequence listed as UUAUUUAUAAUGGAUACCAGUGCUGUGGCCCGGCAUCCUGACAUGAGGAUCACCCAUGUGUACCCUUGGCAGCUGUUAUGGGUUU [XTheo B #20] has a reported apparent KD of MS2 coat protein of 28.3
